# Test system: U-937
# Assay Text: Cytotoxicity against human U937 cells after 48 hrs by trypan blue assay
# Format: functional
# Measurement Parameters: U-937, 48 h
# reported CC50; entries follow
Parameter Measured: CC50

INSERT INTO measurements (compound, measurement_target, parameter_measured, result) VALUES
  ('Cc1cc(=O)oc2ccc(O)cc12', 'U-937', 'CC50', '> 2000 µM'),
  ('O=c1cccco1', 'U-937', 'CC50', '> 2000 µM'),
  ('O=C(O)CCc1ccc(O)c(O)c1 [DIHYDROCAFFEIC ACID]', 'U-937', 'CC50', '> 2000 µM'),
  ('Cc1cc(O)cc(=O)o1', 'U-937', 'CC50', '> 2000 µM'),
  ('COc1ccc(CCC(=O)O)cc1OC', 'U-937', 'CC50', '> 2000 µM'),
  ('Cc1cc(=O)oc2c(O)c(O)ccc12', 'U-937', 'CC50', '120 µM'),
  ('COc1ccc(/C=C/C(=O)O)cc1OC', 'U-937', 'CC50', '> 2000 µM'),
  ('COc1ccc2c(C)cc(=O)oc2c1OC', 'U-937', 'CC50', '> 2000 µM'),
  ('Cc1cc(=O)oc2cc(O)ccc12', 'U-937', 'CC50', '> 2000 µM'),
  ('COc1cc2ccc(=O)oc2c(O)c1O', 'U-937', 'CC50', '70.2 µM'),
  ('CC(=O)c1c(O)ccc2c(C)cc(=O)oc12', 'U-937', 'CC50', '> 1000 µM'),
  ('COc1cc(C)oc(=O)c1', 'U-937', 'CC50', '> 2000 µM'),
  ('COc1cc2ccc(=O)oc2cc1O', 'U-937', 'CC50', '> 2000 µM'),
  ('Cc1cc(=O)oc2cc(O)c(O)cc12', 'U-937', 'CC50', '76 µM'),
  ('Cc1cc(C)oc(=O)c1', 'U-937', 'CC50', '> 2000 µM'),
  ('Cc1cc(=O)oc2cc(O)c(Cl)cc12', 'U-937', 'CC50', '734 µM'),
  ('O=C(O)/C=C/c1ccc(O)cc1', 'U-937', 'CC50', '> 2000 µM'),
  ('Cc1cc(O)nc2cc(O)ccc12', 'U-937', 'CC50', '> 1000 µM'),
  ('COc1cc2ccc(=O)oc2cc1OC', 'U-937', 'CC50', '1290 µM'),
  ('Cc1cc(=O)oc2cc(O)cc(O)c12 [5,7-DIHYDROXY-4-METHYLCOUMARIN]', 'U-937', 'CC50', '> 2000 µM'),
  ('O=C(O)/C=C/c1ccc(O)c(O)c1', 'U-937', 'CC50', '> 2000 µM'),
  ('O=c1ccc2cc(O)c(O)cc2o1', 'U-937', 'CC50', '108 µM');

----------
# Assay Text: Induction of free radicals production in carbonate buffer at pH 9 by electron spin resonance analysis
# Type: physicochemical
Parameter Measured: Activity

INSERT INTO assay_data (molecule, parameter_measured, result) VALUES
  ('Cc1cc(=O)oc2c(O)c(O)ccc12 [4-METHYLDAPHNETIN]', 'Activity', 'Active'),
  ('O=C(O)CCc1ccc(O)c(O)c1 [DIHYDROCAFFEIC ACID]', 'Activity', 'Active'),
  ('Cc1cc(=O)oc2cc(O)c(O)cc12 [4-METHYLESCULETIN]', 'Activity', 'Active'),
  ('COc1cc2ccc(=O)oc2c(O)c1O [FRAXETIN]', 'Activity', 'Active'),
  ('O=c1ccc2cc(O)c(O)cc2o1 [ESCULETIN]', 'Activity', 'Active'),
  ('O=C(O)/C=C/c1ccc(O)c(O)c1 [CAFFEIC ACID]', 'Activity', 'Active');

----------
# Assay Text: Pro-oxidant activity in 0.1 M potassium phosphate buffer at pH 7.4 assessed as increase of oxidation potential by cyclic voltammetry analysis
# Type: physicochemical
Parameter Measured: Activity

INSERT INTO results (compound_string, parameter_measured, result) VALUES
  ('COc1cc(C)oc(=O)c1', 'Activity', 'Not Active'),
  ('COc1ccc2c(C)cc(=O)oc2c1OC', 'Activity', 'Not Active'),
  ('Cc1cc(C)oc(=O)c1', 'Activity', 'Not Active');

----------
# Test system: U-937
# Assay Text: Inhibition of clonogenic activity in human U937 cells assessed as reduction of colony formation in soft agar at 100 to 250 uM after 24 hrs using crystal violet staining
# Type: functional, cell-based
The source made the active and inactive calls. The rule behind the calls is not given here.
Labels: active, inactive

INSERT INTO measurements (compound_string, measurement_target, class) VALUES
  ('O=C(O)/C=C/c1ccc(O)c(O)c1', 'U-937', 'inactive'),
  ('Cc1cc(=O)oc2cc(O)c(O)cc12', 'U-937', 'active'),
  ('COc1cc2ccc(=O)oc2c(O)c1O', 'U-937', 'active'),
  ('O=c1ccc2cc(O)c(O)cc2o1', 'U-937', 'active');
